Entry source: ChEMBL document CHEMBL1800006

Target: Acetylcholinesterase (Electrophorus electricus, UniProt O42275)
Sequence (O42275 whole entry): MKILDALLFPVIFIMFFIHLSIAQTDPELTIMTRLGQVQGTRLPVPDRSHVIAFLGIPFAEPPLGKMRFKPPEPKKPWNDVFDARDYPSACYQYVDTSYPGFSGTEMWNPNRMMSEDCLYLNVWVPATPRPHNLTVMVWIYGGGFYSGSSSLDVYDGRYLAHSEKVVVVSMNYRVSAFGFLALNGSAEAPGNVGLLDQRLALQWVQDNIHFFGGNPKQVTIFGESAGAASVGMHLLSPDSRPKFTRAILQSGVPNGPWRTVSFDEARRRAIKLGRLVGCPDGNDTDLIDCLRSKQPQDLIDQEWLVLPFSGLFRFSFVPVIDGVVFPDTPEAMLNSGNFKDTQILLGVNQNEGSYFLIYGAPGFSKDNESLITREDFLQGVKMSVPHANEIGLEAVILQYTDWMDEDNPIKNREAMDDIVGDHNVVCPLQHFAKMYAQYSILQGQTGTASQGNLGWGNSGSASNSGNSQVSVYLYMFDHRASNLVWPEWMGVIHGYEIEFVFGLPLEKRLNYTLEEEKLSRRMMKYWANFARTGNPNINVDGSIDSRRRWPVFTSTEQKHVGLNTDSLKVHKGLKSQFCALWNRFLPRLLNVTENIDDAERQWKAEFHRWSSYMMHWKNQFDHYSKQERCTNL
pIC50: −log10 of the molar value.
Listing of entries alongside the reported pIC50.
Experimental endpoint: pIC50

>>> test_result("COc1c(-c2ccc(O)cc2)cc(O)c2c1oc1cc(O)c(O)cc12")
5.11
>>> test_result("COc1c(-c2ccc(O)c(O)c2)cc(O)c2c1oc1cc(O)c(O)cc12")
5.28
>>> test_result("COc1c(-c2ccc(O)c(O)c2)cc(O)c(-c2ccc(O)c(O)c2)c1O")
"< 4.00"
>>> test_result("COc1c(-c2ccc(O)cc2)cc(O)c(-c2ccc(O)cc2)c1O")
"< 4.00"
>>> test_result("CC[C@H](C)C(=O)[C@H]1C(=O)O[C@@]2(C)C(=O)C=C3C=C(C)OC=C3[C@H]12")
"< 4.00"
>>> test_result("CC[C@H](C)C(=O)C[C@H]1C2=COC(C)=CC2=CC(=O)[C@]1(C)O")
"< 4.00"
>>> test_result("CC[C@H](C)C(=O)[C@H]1C(=O)O[C@@]2(C)C(=O)C=C3C=C(C)O[C@H](O)[C@H]3[C@H]12")
"< 4.00"
>>> test_result("COc1c(-c2ccc(O)cc2)cc(O)c(-c2ccc(O)c(O)c2)c1O")
"< 4.00"
